assay: Four-period, two-way crossover open label single-dose food-effect pharmacokinetic study of tradipitant capsules in healthy participants (plasma tradipitant and metabolites M2, M3, M4, M8); assay type: in vivo, human; conditions: human, plasma, po, 85 mg, 85 mg tradipitant oral, fed; ln-transformed; read-out: Cmax, Least Squares Geometric Mean, Fed
MEASUREMENT_TYPE: Cmax (ng/mL)

[[record]]
structure = "O=C(c1ccccc1Cl)c1cccnc1-c1nnn(Cc2cc(C(F)(F)F)cc(C(F)(F)F)c2)c1-c1ccncc1"
measurement_type = "Cmax"
observed_result = 401


----------
test: Four-period, two-way crossover open label single-dose food-effect pharmacokinetic study of tradipitant capsules in healthy participants (plasma tradipitant and metabolites M2, M3, M4, M8); type: in vivo, human; settings: human, plasma, po, 170 mg, 170 mg tradipitant oral, fed; ln-transformed; read-out: Cmax, Least Squares Geometric Mean, Fed
MEASUREMENT_TYPE: Cmax (ng/mL)

[[record]]
structure = "O=C(c1ccccc1Cl)c1cccnc1-c1nnn(Cc2cc(C(F)(F)F)cc(C(F)(F)F)c2)c1-c1ccncc1"
measurement_type = "Cmax"
unit_name = "ng/mL"
observed_result = 778

